Test system: HaCaT cells
measurementDescription: Cellular photoactivation assay (white light or dark, Alamar Blue)
Type: cell-based, human
conditions: Homo sapiens, HaCaT, 4 h, 4 h incubation, kept in the dark, concentrations corrected for uptake; read-out: IC50 of HaCaT cell survival, DARK
pIC50: −log10 of the molar value.
Below, each entry is listed with its recorded pIC50.
propertyLabel: pIC50

                                   molecule  readoutvalue
0  CCN(CC)c1ccc2ccc(/C=C/c3ccc(N(C)C)cc3)[o+]c2c1 [7NEt2st4′NMe2]          5.29
1  CCN(CC)c1ccc2ccc(-c3ccc(N)cc3)[o+]c2c1 [7NEt24′NH2, 4′-amino-7-diethylamino-benzopyrylium]          5.52
